# Tested on: Escherichia coli TOP10;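 further: peptides expressed intracellularly from a pBAD plasmid library in pooled LB shake-flask culture, induced with 0.3% L-arabinose, DNA abundance read by NGS, three biological replicates, DESeq2 with apeglm shrinkage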
# Assay info: shrunken log2 fold change of peptide-encoding DNA abundance (4.5 h post-induction vs induction); higher = less antimicrobial activity (less host growth inhibition)
# Condition context: time post-induction: 4.5 h; library: site-saturation at positions 5, 18, 19, 20
Task for the reader: assign each of the following sequences its reported shrunken log2 fold change.
Give bare numbers.

See these solved cases before continuing.
So what's the measured shrunken log2 fold change for this one? `RRIRMRPPRLPRPRPRPYQWPRP`
-0.055

So what's the measured shrunken log2 fold change for this one? `RRIRERPPRLPRPRPRPDDGPRP`
-0.269

Further cases:
So what's the measured shrunken log2 fold change for this one? `RRIRIRPPRLPRPRPRPTDFPRP`
-0.109
